Form field: Ki (one value per entry).
# Target Or System: hM2 (Homo sapiens, UniProt P08172)
# Sequence (P08172 whole entry): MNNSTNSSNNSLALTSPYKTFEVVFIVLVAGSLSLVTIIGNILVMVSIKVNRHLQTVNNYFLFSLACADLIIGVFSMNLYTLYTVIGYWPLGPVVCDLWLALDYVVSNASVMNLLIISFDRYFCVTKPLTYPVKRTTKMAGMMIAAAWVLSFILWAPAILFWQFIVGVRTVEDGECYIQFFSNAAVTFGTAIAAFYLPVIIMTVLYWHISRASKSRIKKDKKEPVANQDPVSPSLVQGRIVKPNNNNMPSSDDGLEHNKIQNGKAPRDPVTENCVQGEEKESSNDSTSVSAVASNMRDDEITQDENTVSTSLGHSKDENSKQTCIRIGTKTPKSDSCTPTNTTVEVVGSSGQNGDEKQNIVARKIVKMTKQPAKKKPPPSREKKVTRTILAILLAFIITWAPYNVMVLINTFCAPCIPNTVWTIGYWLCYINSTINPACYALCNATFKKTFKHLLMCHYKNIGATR
# Experiment Summary: Competitive [3H]NMS radioligand binding, CHO-K1 membranes expressing hM2
# Stated Conditions: [3H]NMS, CHO-hM2 cell membrane preparations; >1000 values from two independent (single-concentration) experiments; read-out: Affinity: Ki ± SD hM2

CN1CCC=C(C(=O)OCC(O)(c2ccccc2)c2ccccc2)C1 : > 1 µM
CN1CCC=C(C(=O)OCc2cccc(O)c2)C1 [Compound 18b] : > 1 µM

Could you now look at the following compound, please?
## Input Look up Ki for this compound: CN1CCC=C(C(=O)OCc2ccc(CO)cc2)C1
## Output > 1 µM

###

# Experiment Summary: High-throughput HPLC-logD
# Format: physicochemical
# Stated Conditions: octadecyl-poly(vinyl alcohol) column, methanol / 0.01 M sodium phosphate buffer pH 7.4
Form field: chromatographic logD (one value per entry).
Write no unit; give the number alone.

CN1CCC=C(C(=O)Oc2ccccc2-c2ccccc2O)C1 [Compound 27] : 2.69
CN1CCC=C(C(=O)OC(c2ccccc2)c2cccc(O)c2)C1 (stereo not shown) [Compound 17b] : 2.69
CN1CCC=C(C(=O)OC(c2ccccc2)c2ccc(CO)cc2)C1 (stereo not shown) [Compound 10c] : 2.8

## Input Look up chromatographic logD for this compound: CN1CCC=C(C(=O)OC(CO)c2ccccc2)C1 (stereo not shown) [Compound 22]
## Output 0.92
